Target: EGFR Del19/C797S (Homo sapiens, UniProt P00533, C797S/DEL746-750)
Sequence (P00533 with tags, fused parts or gaps DEL746-750/C797S): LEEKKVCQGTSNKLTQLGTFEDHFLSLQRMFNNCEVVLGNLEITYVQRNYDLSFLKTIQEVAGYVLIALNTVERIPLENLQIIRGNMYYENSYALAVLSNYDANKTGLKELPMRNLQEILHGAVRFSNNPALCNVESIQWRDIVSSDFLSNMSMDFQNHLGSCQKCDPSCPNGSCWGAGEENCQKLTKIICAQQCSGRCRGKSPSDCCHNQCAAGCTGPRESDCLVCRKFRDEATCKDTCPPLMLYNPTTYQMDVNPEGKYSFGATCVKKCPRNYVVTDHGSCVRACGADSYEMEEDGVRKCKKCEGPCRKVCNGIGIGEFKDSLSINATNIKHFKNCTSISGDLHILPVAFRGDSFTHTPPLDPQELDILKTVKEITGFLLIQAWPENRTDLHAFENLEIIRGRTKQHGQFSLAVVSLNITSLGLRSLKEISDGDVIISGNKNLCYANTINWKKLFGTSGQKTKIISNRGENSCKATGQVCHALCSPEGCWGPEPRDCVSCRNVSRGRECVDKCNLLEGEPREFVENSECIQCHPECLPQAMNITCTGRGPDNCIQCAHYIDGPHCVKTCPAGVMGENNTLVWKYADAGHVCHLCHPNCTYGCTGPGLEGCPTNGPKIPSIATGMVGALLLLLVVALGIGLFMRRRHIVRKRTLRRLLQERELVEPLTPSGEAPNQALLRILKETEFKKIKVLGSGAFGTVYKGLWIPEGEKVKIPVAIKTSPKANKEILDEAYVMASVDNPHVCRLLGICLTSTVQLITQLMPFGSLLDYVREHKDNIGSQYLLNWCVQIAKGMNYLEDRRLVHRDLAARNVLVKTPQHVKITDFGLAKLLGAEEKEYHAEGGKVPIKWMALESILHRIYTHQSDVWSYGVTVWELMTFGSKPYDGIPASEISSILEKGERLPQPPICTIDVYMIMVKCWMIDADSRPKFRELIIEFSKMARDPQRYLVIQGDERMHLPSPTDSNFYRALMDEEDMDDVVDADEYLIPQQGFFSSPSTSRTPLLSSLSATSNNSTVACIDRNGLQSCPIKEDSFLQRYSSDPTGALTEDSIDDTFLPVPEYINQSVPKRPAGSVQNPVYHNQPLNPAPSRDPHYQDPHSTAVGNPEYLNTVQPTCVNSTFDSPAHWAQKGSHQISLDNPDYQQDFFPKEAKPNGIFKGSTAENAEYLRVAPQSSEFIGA
Experiment: Biochemical EGFR kinase inhibition assay (Lance Ultra TR-FRET), double mutant del19/C797S
Conditions: IC50 Del19/C797S (nM), 100 μM ATP
readout name: IC50 (nM)
Answers are plain numbers, in nM.

{"molecule": "CC(=O)N1CCC(n2cc(C#Cc3cnc(Nc4ccnc(-c5cnn(S(=O)(=O)C6CC6)c5)n4)cc3N3CCCC(CO)C3)cn2)CC1 (stereo not drawn)", "IC50 / nM": 8.1}
{"molecule": "O=S(=O)(C1CC1)n1cc(-c2nccc(Nc3cc(NC4CCC(CO)CC4)c(C#CC4CCCO4)cn3)n2)cn1 (stereo not drawn)", "IC50 / nM": 2.4}
{"molecule": "Cn1cc(C#Cc2cnc(Nc3ccnc(-c4cnn(S(=O)(=O)C5CC5)c4)n3)cc2N[C@H]2CCC[C@@H](O)C2)cn1", "IC50 / nM": 5.7}
{"molecule": "Cn1ccc(C#Cc2cnc(Nc3ccnc(-c4cnn(S(=O)(=O)C5CC5)c4)n3)cc2N[C@H]2CC[C@@H](O)CC2)n1", "IC50 / nM": 15.1}
{"molecule": "O=S(=O)(C1CC1)n1cc(-c2nccc(Nc3cc(N[C@H]4CC[C@@H](CO)CC4)c(C#Cc4cnn(CC(F)(F)F)c4)cn3)n2)cn1", "IC50 / nM": 7.3}

Now look at this one.
Summary for this molecule, COC1(O)CCN(c2cc(Nc3ccnc(-c4cnn(S(=O)(=O)C5CC5)c4)n3)ncc2C#Cc2ccc(CN3CCN(C)CC3)cc2)CC1 : IC50 is 2
